pIC50 values by entry
target: Myosin light chain kinase 2, skeletal/cardiac muscle (Homo sapiens); test: Inhibition of full length recombinant human MYLK2 using KKLNRTLSFAEPG as substrate incubated for 40 mins in presence of [gamma-33P-ATP] by radiometric scintillation assay
Sequence (Q9H1R3 whole entry): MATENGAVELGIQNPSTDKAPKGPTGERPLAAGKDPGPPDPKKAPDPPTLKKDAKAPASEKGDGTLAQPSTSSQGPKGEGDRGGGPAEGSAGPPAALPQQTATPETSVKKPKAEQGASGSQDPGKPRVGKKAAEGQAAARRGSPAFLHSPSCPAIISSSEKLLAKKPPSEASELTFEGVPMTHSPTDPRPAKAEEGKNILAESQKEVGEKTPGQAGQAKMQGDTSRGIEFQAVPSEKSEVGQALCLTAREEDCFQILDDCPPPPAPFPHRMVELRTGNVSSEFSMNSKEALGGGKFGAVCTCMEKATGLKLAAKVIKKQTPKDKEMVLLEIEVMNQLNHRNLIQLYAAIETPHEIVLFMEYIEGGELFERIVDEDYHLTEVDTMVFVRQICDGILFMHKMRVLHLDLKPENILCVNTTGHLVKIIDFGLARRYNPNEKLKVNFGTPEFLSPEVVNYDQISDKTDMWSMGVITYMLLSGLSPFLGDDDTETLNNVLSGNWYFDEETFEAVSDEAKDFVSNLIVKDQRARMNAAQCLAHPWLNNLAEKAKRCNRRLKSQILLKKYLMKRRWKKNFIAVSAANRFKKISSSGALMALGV
Bear in mind: pIC50 is minus log10 of a mol/L concentration; give just that figure.

- smiles-record: "Cc1nn(CC(F)(F)F)cc1Nc1nccc(NCCc2cnc[nH]2)n1"
  observed-measurement: 6.32

Read the next record carefully.
Log: Myosin light chain kinase 2, skeletal/cardiac muscle (Homo sapiens), compound `Cc1nn(CC(F)(F)F)cc1Nc1ncc(C2CC2)c(NCCc2c[nH]cn2)n1` , pIC50 = 5.95

All figures here come from ChEMBL document CHEMBL5046221.
